PROTOCOL: NCI Yeast Anticancer Drug Screen. Data for the mec2-1 strain (AID 157)
CONDITION PARAMETERS: S. cerevisiae mec2-1 strain, at 50.0 µM (retest, dose inferred, filed as 5.0), active compounds read high
About 79,000 compounds went through this panel and 15% of them were active in at least one assay; those are over-represented in the sample as a whole. Activity calls are given as the source filed them. No stated cut-off is given here; in the data, active means growth inhibition above about 70%; inactive means the rest.

{"COMPOUND": "CN(C)[C@@H]1C(=O)C(C(=O)NCNc2nc3n[nH]nc3c(=O)[nH]2)=C(O)[C@@]2(O)C(=O)C3=C(O)c4c(O)cccc4[C@@](C)(O)[C@H]3C[C@@H]12", "growth inhibition": "6% (inactive)"}
{"COMPOUND": "Cc1ccc(SCN2CCCCC2)cc1 (tested in a mixture with another compound)", "growth inhibition": "2% (inactive)"}
{"COMPOUND": "O=C(O)CCC12CCCCC1=NC1(CCCCC1)NC2=O (stereo not given)", "growth inhibition": "-1% (inactive)"}
{"COMPOUND": "C/C(=N\\NC(=S)Nc1ccc(S(N)(=O)=O)cc1)c1ccccn1", "growth inhibition": "65% (inactive)"}
{"COMPOUND": "COc1ccccc1C1C(Cl)C(=O)N1n1cnc2ccccc2c1=O (stereo not given)", "growth inhibition": "7% (inactive)"}
{"COMPOUND": "CCOc1ccc2c(c1)n([O-])c1ccccc1[n+]2=O", "growth inhibition": "99% (active)"}
{"COMPOUND": "O=C(/C(=C/c1ccc(Cl)cc1)c1ccccc1)c1ccc(O)cc1", "growth inhibition": "97% (active)"}
{"COMPOUND": "CCOC(=O)CSC(=S)N1CCOCC1", "growth inhibition": "-10% (inactive)"}
{"COMPOUND": "S=C(Nc1ccc(Cl)c(Cl)c1)SC1CCCCC1", "growth inhibition": "97% (active)"}
{"COMPOUND": "CC1(c2ccc(F)cc2)OC(=O)c2c1ccc1ccccc21 (stereo not given)", "growth inhibition": "78% (active)"}
